- Test system: PfAP2-I AP2 domain 3 (GST-tagged)
- Experiment: gcPBM binding intensity (ln(normalized median fluorescence intensity)); higher = stronger DNA binding
The full ranking holds about 25,000 sequences; the median of “ln(normalized median fluorescence intensity)” is about 7.9, and the highest 2% start at about 11. This is one part of a sample in which the highest values are shown more often than they occur.
For each record, write down the corresponding gcPBM binding intensity (ln).
Numbers only.

Provide gcPBM binding intensity (ln) values for the following items, in order.
1. TAATAATTTATAATAGTGCATTTGATTTTAAAAATA
2. TTTTTTATTGTGATACGTATATTATTTTATGATAAA [CACACA_negctrl_site1591]
3. AATATTTTTTTATAAACACACATATATATAAATATA [CACACA_site3524]

output:
1. 9.81
2. 8.04
3. 7.89

Provide gcPBM binding intensity (ln) values for the following items, in order.
1. TTTATTTTTATTTTTGTGCACGGGATTAAATAAAAG [GTGCAC_site9842]
2. TATTTTATAATAGGCACACATATAAAAATATATATA [CACACA_site4127]

output:
1. 11.2
2. 7.96

----------
- Tested on: PfAP2-I AP2 domain 3 (GST-tagged)
- Experiment: gcPBM binding intensity (ln(normalized median fluorescence intensity)); higher = stronger DNA binding
In all, about 25,000 sequences were measured (“ln(normalized median fluorescence intensity)”: median about 7.9, highest 2% from about 11 on). What follows is part of a selection rich in the highest values, with near analogues and random picks from the rest.
Entry flag: criterion met if gcPBM binding intensity (ln) reaches 10; criterion not met if it does not.

- Sequence: "ATTCACAAATATATGGTGCATAATATATATATATAT [GTGCAC_site9674]"
  Qualitative label: "criterion met"

input: Say whether CACATACACATACAAACACACATTATGTATATATAT [CACACA_site1599] shows gcPBM binding intensity (ln) of 10 or more.
output: criterion not met

input: Say whether TGAATATTCATATGCACACAAATTAATATACATAAT [CACACA_site442] shows gcPBM binding intensity (ln) of 10 or more.
output: criterion not met

input: Say whether TTTTATGTTCTTAATGCACACTTATAAGTATCTTAT [CACACA_site4895] shows gcPBM binding intensity (ln) of 10 or more.
output: criterion met

----------
- System: PfAP2-I AP2 domain 3 (GST-tagged)
- Experiment: gcPBM binding intensity (ln(normalized median fluorescence intensity)); higher = stronger DNA binding
The full ranking holds about 25,000 sequences; the median of “ln(normalized median fluorescence intensity)” is about 7.9, and the highest 2% start at about 11. Many of the other results were omitted from the sample, so the highest values are more common in it than they were.
Measured property: gcPBM binding intensity (ln)
Answers are plain numbers.

Look over these answered cases.
- Sequence: "ATAAAATAAAACAACACACACGAATGTATAAATATA [CACACA_site4643]"
  gcPBM binding intensity (ln): 7.66
- Sequence: "ATATATATATATATAGTGCACATTTATATAATTATT"
  gcPBM binding intensity (ln): 11.4
- Sequence: "GTATAAAAGTAACTAGTGCATTACATATGAATAAAA"
  gcPBM binding intensity (ln): 11.4
- Sequence: "TTTGTGTATATAACAGTGCAATATTATAAATATAAA [GTGCAC_site9750]"
  gcPBM binding intensity (ln): 10.5

Provide gcPBM binding intensity (ln) values for the following items, in order.
1. TATATATATATATGTGCACACATAATAAAAAAAAAA [CACACA_site3830]
2. TGCATTATTTACAAGGTGCGTTACAAATGTGTAACA [GTGCAC_site9442]
3. AGCAATTTGGGGTGTACACACACCTTATTTAAATTA [CACACA_site1157]
4. ATATATTTATTAAGGTGTACAAAAATTATGTTGCAT [XGTACX_site7546]
5. AACCTTACACAAGGGGTGCAATATTATTTCGATAAA [GTGCAC_site9600]
6. ATATAGATCTACACTGCACACATTTTTAACACTGCT [CACACA_site1882]

output:
1. 10.6
2. 11.3
3. 8.23
4. 8.26
5. 11.5
6. 9.04

----------
- Tested on: PfAP2-I AP2 domain 3 (GST-tagged)
- Experiment: gcPBM binding intensity (ln(normalized median fluorescence intensity)); higher = stronger DNA binding
Over roughly 25,000 sequences, “ln(normalized median fluorescence intensity)” has its median near 7.9; the highest 2% begin near 11. The sample holds the highest values, similar sequences and a random draw of the others, so the mix is not that of the screen.
Entry flag: rule met if gcPBM binding intensity (ln) reaches 8; rule not met if it does not.

- Sequence: "ATAATTACATAGATTGGTACACATTTTTGATTGTAT [XGTACX_site3802]"
  Test system: "PfAP2-I AP2 domain 3 (GST-tagged)"
  Qualitative label: "rule not met"

# evaluate next
input: Say whether ATTATTAAGTTTCACAAGAACATTGTTAACAATTTT [CACACA_negctrl_site1128] shows gcPBM binding intensity (ln) of 8 or more.
output: rule not met

----------
- Tested on: PfAP2-I AP2 domain 3 (GST-tagged)
- Experiment: gcPBM binding intensity (ln(normalized median fluorescence intensity)); higher = stronger DNA binding
In all, about 25,000 sequences were measured (“ln(normalized median fluorescence intensity)”: median about 7.9, highest 2% from about 11 on). The entries come from a sample that favours the highest values as a whole.
Entry flag: Yes if gcPBM binding intensity (ln) reaches 10; No if it does not.

- Sequence: "ATTATTCATTTATGTAGTACATTTTAATACATTTAA [XGTACX_site3599]"
  Test system: "PfAP2-I AP2 domain 3 (GST-tagged)"
  Qualitative label: "No"
- Sequence: "TATTTTTGGTTATGTGTGCACTATGAACAACAAAAT"
  Test system: "PfAP2-I AP2 domain 3 (GST-tagged)"
  Qualitative label: "Yes"
- Sequence: "ATTTTATGAAATGTTGCACACAAAAAACAACATGTT [CACACA_site8408]"
  Test system: "PfAP2-I AP2 domain 3 (GST-tagged)"
  Qualitative label: "No"
- Sequence: "TTTATTTATCTTTACGCACACACTTGCATGTACAAA [CACACA_site1118]"
  Test system: "PfAP2-I AP2 domain 3 (GST-tagged)"
  Qualitative label: "No"
- Sequence: "AACCAATTATATTTACGTACGTACGGTTTTTTATAT [XGTACX_site1291]"
  Test system: "PfAP2-I AP2 domain 3 (GST-tagged)"
  Qualitative label: "No"
- Sequence: "AAAAGTCTCTTTTTAGTGCACATTTTATTTAAATAT"
  Test system: "PfAP2-I AP2 domain 3 (GST-tagged)"
  Qualitative label: "Yes"
- Sequence: "ATAATATATGTATGTATGCACTTTTATTATTTTTTT"
  Test system: "PfAP2-I AP2 domain 3 (GST-tagged)"
  Qualitative label: "No"
- Sequence: "TTTCATTTAGCTTTTACACACTATATATCATTGATT [CACACA_site6158]"
  Test system: "PfAP2-I AP2 domain 3 (GST-tagged)"
  Qualitative label: "No"

input: Say whether `AATAACTATATATGTGTGCACAAAAATTTGACATAA` shows gcPBM binding intensity (ln) of 10 or more.
output: Yes

input: Say whether ATATATTATATTTAAGTGCATTAATTAAAATGCTTA [GTGCAC_site9403] shows gcPBM binding intensity (ln) of 10 or more.
output: Yes

input: Say whether TAATAAAAAAAGTGCACACACATAATATTTATATAT [CACACA_site7548] shows gcPBM binding intensity (ln) of 10 or more.
output: No

----------
- Tested on: PfAP2-I AP2 domain 3 (GST-tagged)
- Experiment: gcPBM binding intensity (ln(normalized median fluorescence intensity)); higher = stronger DNA binding
The full ranking holds about 25,000 sequences; the median of “ln(normalized median fluorescence intensity)” is about 7.9, and the highest 2% start at about 11. This excerpt belongs to a sample that is enriched for the highest values.
For each record, write down the corresponding gcPBM binding intensity (ln).
Answers are plain numbers.

Look over these answered cases.
- Sequence: "TATATGTGATAACACGCACACAAATGTATATAATTT [CACACA_site2593]"
  gcPBM binding intensity (ln): 8.1
- Sequence: "TATATTATTATATATTGTACTTTTTATATTTGCATT [XGTACX_site2978]"
  gcPBM binding intensity (ln): 7.72
- Sequence: "AAATAGTTGTTAAAGGTGCACAATATGGATATAAGA"
  gcPBM binding intensity (ln): 11.5
- Sequence: "TTTTTTTTTTTTGAAGTGCATTACTTTTTTTGTATT [GTGCAC_site9811]"
  gcPBM binding intensity (ln): 11
- Sequence: "ATAAATTTTTAAACAGCACACATAAATATAATATAT [CACACA_site8691]"
  gcPBM binding intensity (ln): 8.28

Provide gcPBM binding intensity (ln) values for the following items, in order.
1. TTTTGTTTATGTGTGCATTATATTATATTTTTTATT [TGCATGCA_negctrl_site146]
2. TAACTTAATTTTAATGCACACAATTTATATATATAT [CACACA_site6022]
3. TTCAATAGGTATAATTGTACTTAATAATATATTGTT [XGTACX_site8363]
4. ATTTCTTTTTTATTGAGTACATATGACCATGTTCAA [XGTACX_site5365]
5. TATATATATATAATTGTGCACATAATTTTAAACCAA
6. TAAATTTATGGACACACACACATATATATATATATA [CACACA_site4620]
7. TTAATATAACTTTTTGCACACTTAATTTTTTTTTTT [CACACA_site3364]

output:
1: 10.9; 2: 11.2; 3: 7.53; 4: 8.14; 5: 11.1; 6: 9.45; 7: 9.32

Provide gcPBM binding intensity (ln) values for the following items, in order.
1. TTTTTGTGCATTGATTGTACTTTCTAGGATTATTAA [XGTACX_site7070]
2. TTTTATTGTTGTTATACACACCATATAAAATATTTC [CACACA_site4983]
3. ATATATCATATTATAGTGCATTTATAATAATATTAT
4. AAATAAGAAAAAGCGCGTACACATAACATTTTTATA [XGTACX_site8807]
5. CTTAAATTAATTTGGGTGCATATATTTGTACACATT [GTGCAC_site9948]
6. TAAATTATATTATGCACACTTAAAAATATATTTAAC [CACACA_site3512]
7. TTTATATATTTTGTCGTGCACATTTGGAAAATTACA [GTGCAC_site9776]
8. TAACTTAATATTAATGCACACAATTTATATATATAT [CACACA_site3903]

output:
1. 10.2
2. 7.92
3. 10.8
4. 7.82
5. 10.8
6. 10.4
7. 10.8
8. 11.3

Provide gcPBM binding intensity (ln) values for the following items, in order.
1. AAATATAATAATACATTGCACATATATTATATATAT [TGCATGCA_negctrl_site611]
2. TAAATATATAAACACACACACATTAATACAGATATT [CACACA_site5851]
3. TAAAATAAATTGTGCACACATATTTATAAATATGAA [CACACA_site2331]
4. AATAAAATTTGCGATGCACACAGAATAGCTAATATG [CACACA_site8983]
5. TTAAAAGTTATGGATACACACATATAAATATAGATT [CACACA_site7175]

output:
[8.53, 7.72, 11.3, 7.96, 7.57]

Provide gcPBM binding intensity (ln) values for the following items, in order.
1. TATAAAAATATTTCTACACACATTAATATATATATA [CACACA_site1150]
2. AGTTTGTTTTTTTTTTTTTTTTCCTGTCACAAACAA [CACACA_negctrl_site1093]
3. AGGAAAATTTTATTTGCACACATTATTACGTCTAAA [CACACA_site2337]
4. AGTATACATTCATTTTGTACTCAATGATTTGATAAC [XGTACX_site6787]
5. TTGCATATTTCTAATTGTACATTATTTTATTTTATA [XGTACX_site8451]
6. TTTTTTGTTTGAATGGTGCATTTTGTAATTATATTT
7. ATATGTATGTATTTATTATTGTGCATTGTATTTATA [CACACA_negctrl_site664]
8. CTATTTTAATATTTTACACACCATGTAAAATATATA [CACACA_site5732]

output:
8.97
8.22
9.9
7.63
7.75
10.3
9.36
7.97
